Data origin, for the record: ChEMBL document CHEMBL2010654

- System: A549
- assay_details: Cytotoxicity against human A549 cells after 20 hrs by SRB assay
- Type: functional, cell-based
- reported_conditions: A549, 20 h
pIC50: −log10 of the molar value.
Decision: pIC50 >= 4 yields Y, all other cases yield N.

>>> df
                                   molecule  label
0  CN(C)C(=O)C1CC(c2ccc3ccc4cccc5ccc2c3c45)=NO1 (stereo unspecified)      Y

Query string: Could you please find out whether CN(C)C(=O)C1CC(c2cc3ccccc3c3ccccc23)=NO1 (stereo unspecified) has pIC50 that meets 4 or exceeds it?
Result string: N

Query string: Try the molecule CN(C)C(=O)[C@H]1C[C@H](c2ccc3ccc4cccc5ccc2c3c45)N(C)O1 (racemic)
Result string: Y
